Cited source: PubChem BioAssay (NCATS)

# System: N140
# assay_name: qHTS profiling for inhibitors of Plasmodium falciparum proliferation (AID 504749); note: nearly all actives have a fitted effect of over 60% in size; note: potency is the fitted concentration of half-maximal effect
# assay_setup: P. falciparum in erythrocytes, SYBR Green DNA, 72 h; series mostly up to 28.7 µM
Records with an inconclusive call do not appear. Active and inactive are the calls of the source. Calls come from the whole dose curve; as a rule, active = well fitted inhibition curve with a large enough effect; inconclusive = small, poorly fitted or top-dose-only effect; inactive = flat fitted curve, though single readings scatter.
measurement_kind: Potency

N[C@@H](Cc1c[nH]c2ccc(O)cc12)C(=O)O; inactive
Cc1cc(C(C)(C)C)cc(C)c1CC1=NCCN1; inactive
COc1ccccc1OCCNCC(O)COc1cccc2[nH]c3ccccc3c12 (centres undefined); 12.6 µM (active)
O=C1N(c2ccccc2)c2ccccc2C1(Cc1ccncc1)Cc1ccncc1; inactive

----------
# assay_name: Quantitative High-Throughput drug screen in 47 multiple myeloma cell lines against the NCATS MIPE library collection: XG6_PLB cell viability assay (AID 1919865); note: nearly all actives have a fitted effect of over 40% in size
# assay_setup: XG6 myeloma viability, CellTiter-Glo ATP luminescence, 48 h; series mostly up to 45.8 µM
# Description: PI: Beverly A. Mock Ph.D. Laboratory of Cancer Biology and Genetics, Center for Cancer Research, National Cancer Institute, National Institute of Health, Bethesda, Maryland […] 5; Detector; 425V; Luminescence; Viewlux PerkinElmer. […] 1. […] Briefly, the corresponding myeloma cell lines were screened in 1,536-well plates with 500 cells, 5-uL per well for inhibition of cell viability (assessed by measuring ATP levels with CellTiterGlo). […]
Inconclusive results are not listed. Calls of active or inactive are those of the source. The call rests on the fitted dose curve; in most records, active means well fitted cell-killing curve with a large enough effect; inconclusive means small, poorly fitted or top-dose-only effect, or effect the other way; inactive means no such curve, though single readings can be large or run the other way.
Thanks in advance; please answer with one of these: active, inactive

Solved entries (count: 6):
COc1ccc2c(c1)c(CC(=O)O)c(C)n2C(=O)c1ccc(Cl)cc1; active
O=C(c1ccc(OCCN2CCCCC2)cc1)c1c(-c2ccc(O)cc2)sc2cc(O)ccc12; active
COc1cc2nc(N(C)CCCNC(=O)C3CCCO3)nc(N)c2cc1OC (configuration not stated); inactive
Cn1c(=O)c2c(ncn2C)n(C)c1=O; inactive
COc1cc2nc(N3CCN(C(=O)c4ccco4)CC3)nc(N)c2cc1OC; active
NC12CC3CC(CC(C3)C1)C2; active

Ask | I would be grateful if you could indicate the recorded call for CC#C[C@]1(O)CC[C@H]2[C@@H]3CCC4=CC(=O)CCC4=C3[C@@H](c3ccc(N(C)C)cc3)C[C@@]21C .
Reply | active

Ask | I would be grateful if you could indicate the recorded call for CN1C2CCC1CC(OC(=O)C(CO)c1ccccc1)C2 (configuration not stated) .
Reply | inactive

Ask | I would be grateful if you could indicate the recorded call for CN(C)C(=O)C(CCN1CCC(O)(c2ccc(Cl)cc2)CC1)(c1ccccc1)c1ccccc1 .
Reply | active

Ask | I would be grateful if you could indicate the recorded call for O=c1c(O)c(-c2ccc(O)c(O)c2)oc2cc(O)cc(O)c12 .
Reply | active

Ask | I would be grateful if you could indicate the recorded call for CNCCCC12CCC(c3ccccc31)c1ccccc12 .
Reply | active

Ask | I would be grateful if you could indicate the recorded call for CC[C@@]1(O)C(=O)OCc2c1cc1n(c2=O)Cc2cc3c(CN(C)C)c(O)ccc3nc2-1 .
Reply | active

----------
# Test system: TAB113
# assay_name: qHTS profiling for inhibitors of Plasmodium falciparum proliferation (AID 504749); note: nearly all actives have a fitted effect of over 60% in size
# assay_setup: P. falciparum in erythrocytes, SYBR Green DNA, 72 h; series mostly up to 28.7 µM
Results filed as inconclusive are left out. The source made the active and inactive calls. The call rests on the fitted dose curve; in most records, active means well fitted inhibition curve with a large enough effect; inconclusive means small, poorly fitted or top-dose-only effect; inactive means flat fitted curve, though single readings scatter.
Thanks in advance; please answer with one of these: active, inactive

Clc1ccc2nsnc2c1NC1=NCCN1; inactive
CCC1(c2ccccc2)C(=O)NCNC1=O; inactive
O=c1c(-c2ccc(O)cc2)coc2cc(O)cc(O)c12; inactive
CC12CC3CC(C)(C1)CC(N)(C3)C2; inactive
CCOC(=O)c1ncn2c1CN(C)C(=O)c1cc(F)ccc1-2; inactive
CN1CCN2c3ccccc3Cc3ccccc3C2C1 (stereo not drawn); inactive
CC(C)Cc1ccc(C(C)C(=O)O)cc1 (stereo not drawn); inactive
Cc1cn([C@H]2C[C@H](N=[N+]=[N-])[C@@H](CO)O2)c(=O)[nH]c1=O; inactive
CCCCc1oc2ccccc2c1C(=O)c1cc(I)c(OCCN(CC)CC)c(I)c1; active
Clc1ccccc1C(c1ccccc1)(c1ccccc1)n1ccnc1; active

Ask | I would be grateful if you could indicate the recorded call for Cn1c(=O)c2c(ncn2C)n(C)c1=O .
Reply | inactive

Ask | I would be grateful if you could indicate the recorded call for OCCN1CCN(CCCN2c3ccccc3Sc3ccc(C(F)(F)F)cc32)CC1 .
Reply | active

Ask | I would be grateful if you could indicate the recorded call for Nc1c2c(nc3ccccc13)CCCC2 .
Reply | inactive
